target: Receptor-type tyrosine-protein phosphatase C (Homo sapiens) (UniProt P08575); test: In vitro inhibitory activity against recombinant CD45 protein tyrosine phosphatase
Sequence (P08575 whole entry, looked up): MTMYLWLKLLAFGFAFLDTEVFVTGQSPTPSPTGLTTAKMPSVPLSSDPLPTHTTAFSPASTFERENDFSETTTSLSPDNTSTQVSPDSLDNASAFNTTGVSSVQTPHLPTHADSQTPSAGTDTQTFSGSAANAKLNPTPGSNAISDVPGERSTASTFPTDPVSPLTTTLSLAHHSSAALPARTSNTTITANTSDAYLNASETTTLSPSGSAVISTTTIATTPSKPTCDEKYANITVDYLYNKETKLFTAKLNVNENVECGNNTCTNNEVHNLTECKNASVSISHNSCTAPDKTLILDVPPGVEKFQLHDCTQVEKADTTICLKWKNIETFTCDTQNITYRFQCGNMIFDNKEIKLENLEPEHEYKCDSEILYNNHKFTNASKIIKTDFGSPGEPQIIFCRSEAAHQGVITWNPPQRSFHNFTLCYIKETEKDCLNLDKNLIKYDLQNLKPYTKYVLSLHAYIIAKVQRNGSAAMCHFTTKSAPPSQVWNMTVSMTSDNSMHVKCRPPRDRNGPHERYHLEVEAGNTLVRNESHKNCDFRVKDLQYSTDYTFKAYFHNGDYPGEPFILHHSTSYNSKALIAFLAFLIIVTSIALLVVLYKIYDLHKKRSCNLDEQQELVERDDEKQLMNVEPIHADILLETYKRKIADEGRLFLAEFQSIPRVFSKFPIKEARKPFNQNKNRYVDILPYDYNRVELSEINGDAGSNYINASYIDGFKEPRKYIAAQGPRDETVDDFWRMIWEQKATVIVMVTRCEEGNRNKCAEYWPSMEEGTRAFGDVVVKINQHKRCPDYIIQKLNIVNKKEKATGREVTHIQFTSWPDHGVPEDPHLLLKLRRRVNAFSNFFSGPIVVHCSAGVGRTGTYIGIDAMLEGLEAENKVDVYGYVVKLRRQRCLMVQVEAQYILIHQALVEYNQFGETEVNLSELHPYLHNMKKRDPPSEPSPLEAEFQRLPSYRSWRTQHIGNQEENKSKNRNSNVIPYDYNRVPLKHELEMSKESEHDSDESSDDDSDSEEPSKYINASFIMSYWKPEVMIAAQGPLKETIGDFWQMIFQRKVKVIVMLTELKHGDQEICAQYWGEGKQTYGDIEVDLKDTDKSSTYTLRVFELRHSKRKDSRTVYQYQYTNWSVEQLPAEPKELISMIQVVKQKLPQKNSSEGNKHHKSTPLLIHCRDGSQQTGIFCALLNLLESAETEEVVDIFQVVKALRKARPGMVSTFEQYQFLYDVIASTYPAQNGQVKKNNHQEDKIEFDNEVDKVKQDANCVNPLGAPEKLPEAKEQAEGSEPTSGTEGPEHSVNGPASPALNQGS
Provide the reported IC50 of each item.
Answers are plain numbers, in µM.

Past entries and their recorded results:
molecule	target.or.test.system	IC50 (µM)
c1ccc2c(c1)C[C@H]1NCCc3cc4c(c-2c31)OCO4 [(-)-anonaine]	Receptor-type tyrosine-protein phosphatase C (Homo sapiens) (UniProt P08575)	17
CN1CCc2cc3c(c4c2C1Cc1ccccc1-4)OCO3 (stereo not given)	Receptor-type tyrosine-protein phosphatase C (Homo sapiens) (UniProt P08575)	107
COc1cc2c3c(c1OC)-c1ccccc1C[C@@H]3NCC2	Receptor-type tyrosine-protein phosphatase C (Homo sapiens) (UniProt P08575)	5.3

Each molecule below has a reported value. Please supply its IC50.
1. O=C1c2ccccc2-c2c3c(cc4ccnc1c24)OCO3
2. COc1cc2c(cc1OC)-c1c(OC)c(OC)cc3c1[C@H](C2)N(C)CC3

result:
[182, 88]
